# Test system: MCF7
# Experiment description: In vitro cytotoxic activity, MTT assay, MCF7
# Assay type: cell-based
# Experimental setup: Homo sapiens, 72 hours
Property measured: pIC50
Schema: pIC50 number; meaning minus log10 of the concentration expressed in molar units.

>>> print(df.to_string())
                                   molecule  target_of_assay  recorded_measurement
0   CC(C)n1nnc2c(Nc3cccc(Cl)c3)nc(NCCN)nc21             MCF7                  4.00
1  CC(C)[C@H](CO)Nc1nc(Nc2ccc(Cl)c(N)c2)c2nnn(C(C)C)c2n1             MCF7                  4.79
2  CC(C)[C@H](CO)Nc1nc(NCc2ccccc2O)c2nnn(C(C)C)c2n1             MCF7                  4.62
3  CC(C)n1nnc2c(Nc3cccc(Cl)c3)nc(NC3CCCCC3N)nc21 (stereo not shown)             MCF7                  5.05

Now take the following molecule into account.
Query the reported pIC50 for MCF7; item: CC(C)[C@H](CO)Nc1nc(Nc2ccc(Cl)cc2)c2nnn(C(C)C)c2n1
4.75

====

# Target of assay: p34^cdc2/cyclin B (CDC2) (Homo sapiens)
# Sequence (P06493 whole entry, species assumed): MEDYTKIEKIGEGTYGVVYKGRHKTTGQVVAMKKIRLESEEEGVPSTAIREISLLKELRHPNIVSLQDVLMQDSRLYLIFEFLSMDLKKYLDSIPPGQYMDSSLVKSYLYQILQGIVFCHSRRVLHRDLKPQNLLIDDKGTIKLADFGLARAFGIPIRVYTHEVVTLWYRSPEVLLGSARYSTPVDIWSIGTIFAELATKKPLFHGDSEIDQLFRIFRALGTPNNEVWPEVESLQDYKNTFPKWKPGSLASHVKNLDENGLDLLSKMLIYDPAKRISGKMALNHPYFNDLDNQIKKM
# Sequence (P14635 whole entry partner, species assumed): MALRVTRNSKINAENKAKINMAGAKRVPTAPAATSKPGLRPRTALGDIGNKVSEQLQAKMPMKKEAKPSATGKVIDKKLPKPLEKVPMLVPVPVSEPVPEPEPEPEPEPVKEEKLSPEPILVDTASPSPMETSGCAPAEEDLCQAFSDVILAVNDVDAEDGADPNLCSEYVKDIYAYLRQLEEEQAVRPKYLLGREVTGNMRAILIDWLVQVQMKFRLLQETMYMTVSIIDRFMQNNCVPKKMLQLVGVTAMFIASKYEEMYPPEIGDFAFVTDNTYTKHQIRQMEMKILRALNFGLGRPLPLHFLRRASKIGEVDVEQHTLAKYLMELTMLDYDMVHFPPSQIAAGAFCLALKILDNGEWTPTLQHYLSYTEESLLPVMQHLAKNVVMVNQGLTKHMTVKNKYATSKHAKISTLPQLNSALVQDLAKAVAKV
# Experiment description: CDK inhibition assay, p34cdc2/cyclin B kinase, histone H1 phosphorylation
For each record, check the reported IC50: if it is below 20 µM write rule met, else write rule not met.

>>> print(df.to_string())
                                   compound         class
0  CC(C)[C@H](CO)Nc1nc(Nc2ccc(C(=O)O)c(Cl)c2)c2nnn(C(C)C)c2n1  rule not met

Input CC(C)n1nnc2c(Nc3cccc(Cl)c3)nc(NC3CCC(N)CC3)nc21 (stereo not shown) ; condition: IC50 strictly below 20 µM. Does it hold?
rule met

Input Cn1nnc2c(NCc3ccccc3)nc(NC3CCC(N)CC3)nc21 (stereo not shown) ; condition: IC50 strictly below 20 µM. Does it hold?
rule met

Input CC(C)[C@H](CO)Nc1nc(NCc2ccc(Cl)c(N)c2)c2nnn(C(C)C)c2n1 ; condition: IC50 strictly below 20 µM. Does it hold?
rule not met

Input COc1cccc(CNc2nc(N[C@@H](CO)C(C)C)nc3c2nnn3C(C)C)c1O ; condition: IC50 strictly below 20 µM. Does it hold?
rule not met

Input CC(C)[C@H](CO)Nc1nc(NCc2cc(O)c(Cl)cc2O)c2nnn(C(C)C)c2n1 ; condition: IC50 strictly below 20 µM. Does it hold?
rule met

Input CC(C)n1nnc2c(Nc3cccc(Cl)c3)nc(NCCCN)nc21 ; condition: IC50 strictly below 20 µM. Does it hold?
rule not met

Input COc1cccc(CNc2nc(NCCO)nc3c2nnn3C)c1O ; condition: IC50 strictly below 20 µM. Does it hold?
rule not met

Input CC(C)n1nnc2c(NCc3ccccc3)nc(NC3CCC(N)CC3)nc21 (stereo not shown) ; condition: IC50 strictly below 20 µM. Does it hold?
rule met

Input Cn1nnc2c(NCc3ccccc3)nc(NC3CCCCC3N)nc21 (stereo not shown) ; condition: IC50 strictly below 20 µM. Does it hold?
rule not met

====

# Tested on: K-562
# Experiment description: In vitro cytotoxic activity, MTT assay, K-562
# Assay type: cell-based
# Experimental setup: Homo sapiens, K562, 72 hours
Property measured: IC50 (µM)
Give the number; µM is assumed, so skip it.

Example cases with answers are listed next.
                                   compound  recorded_measurement
0  CC(C)[C@H](CO)Nc1nc(Nc2ccc(O)c(C(=O)O)c2)c2nnn(C(C)C)c2n1                    28
1  CC(C)[C@H](CO)Nc1nc(Nc2ccc(Br)cc2)c2nnn(C(C)C)c2n1                    75
2  CC(C)[C@H](CO)Nc1nc(NCc2cccc(O)c2)c2nnn(C(C)C)c2n1                  17.5
3  CC(C)[C@H](CO)Nc1nc(Nc2ccc(Cl)c(N)c2)c2nnn(C(C)C)c2n1                  18.8
4  CC(=O)c1cccc(CNc2nc(N[C@@H](CO)C(C)C)nc3c2nnn3C(C)C)c1                  50.6
5  CC(C)[C@H](CO)Nc1nc(Nc2ccccc2)c2nnn(C(C)C)c2n1                   100

Look up IC50 for this compound: CC(C)n1nnc2c(Nc3cccc(Cl)c3)nc(NC3CCCCC3N)nc21 (stereo not shown)
12.2

Look up IC50 for this compound: CC(C)[C@H](CO)Nc1nc(Nc2cccc(Cl)c2)c2nnn(C(C)C)c2n1
96

Look up IC50 for this compound: CC(=O)Oc1cccc(CNc2nc(N[C@@H](CO)C(C)C)nc3c2nnn3C(C)C)c1
31.7

Look up IC50 for this compound: CC(=O)c1ccccc1CNc1nc(N[C@@H](CO)C(C)C)nc2c1nnn2C(C)C
34.9

Look up IC50 for this compound: CC(=O)Oc1ccccc1CNc1nc(N[C@@H](CO)C(C)C)nc2c1nnn2C(C)C
24

Look up IC50 for this compound: CC(C)[C@H](CO)Nc1nc(NCc2ccccc2O)c2nnn(C(C)C)c2n1
25

Look up IC50 for this compound: CC(C)n1nnc2c(Nc3cccc(Cl)c3)nc(NC3CCC(N)CC3)nc21 (stereo not shown)
7.4

Look up IC50 for this compound: CC(C)[C@H](CO)Nc1nc(Nc2ccc(Cl)cc2)c2nnn(C(C)C)c2n1
19.4

Look up IC50 for this compound: CC(C)[C@H](CO)Nc1nc(Nc2ccc(Cl)c(C(=O)O)c2)c2nnn(C(C)C)c2n1
42

Look up IC50 for this compound: CC(C)[C@H](CO)Nc1nc(Nc2ccc(N)c(Cl)c2)c2nnn(C(C)C)c2n1
28.9
